molecular target: PDZ protein (GST-PDZ fusion) (Homo sapiens); construct: made in house; host or cells: E. coli (DH5alpha, BL21 or JM109); test: G' assay (10 uM PL peptide), results of TABLE 7 and TABLE 12; assay type: binding; details: PDZ KIAA807 (domain not given)
Sequence (Q6P0Q8 whole entry, the tested form may be a part): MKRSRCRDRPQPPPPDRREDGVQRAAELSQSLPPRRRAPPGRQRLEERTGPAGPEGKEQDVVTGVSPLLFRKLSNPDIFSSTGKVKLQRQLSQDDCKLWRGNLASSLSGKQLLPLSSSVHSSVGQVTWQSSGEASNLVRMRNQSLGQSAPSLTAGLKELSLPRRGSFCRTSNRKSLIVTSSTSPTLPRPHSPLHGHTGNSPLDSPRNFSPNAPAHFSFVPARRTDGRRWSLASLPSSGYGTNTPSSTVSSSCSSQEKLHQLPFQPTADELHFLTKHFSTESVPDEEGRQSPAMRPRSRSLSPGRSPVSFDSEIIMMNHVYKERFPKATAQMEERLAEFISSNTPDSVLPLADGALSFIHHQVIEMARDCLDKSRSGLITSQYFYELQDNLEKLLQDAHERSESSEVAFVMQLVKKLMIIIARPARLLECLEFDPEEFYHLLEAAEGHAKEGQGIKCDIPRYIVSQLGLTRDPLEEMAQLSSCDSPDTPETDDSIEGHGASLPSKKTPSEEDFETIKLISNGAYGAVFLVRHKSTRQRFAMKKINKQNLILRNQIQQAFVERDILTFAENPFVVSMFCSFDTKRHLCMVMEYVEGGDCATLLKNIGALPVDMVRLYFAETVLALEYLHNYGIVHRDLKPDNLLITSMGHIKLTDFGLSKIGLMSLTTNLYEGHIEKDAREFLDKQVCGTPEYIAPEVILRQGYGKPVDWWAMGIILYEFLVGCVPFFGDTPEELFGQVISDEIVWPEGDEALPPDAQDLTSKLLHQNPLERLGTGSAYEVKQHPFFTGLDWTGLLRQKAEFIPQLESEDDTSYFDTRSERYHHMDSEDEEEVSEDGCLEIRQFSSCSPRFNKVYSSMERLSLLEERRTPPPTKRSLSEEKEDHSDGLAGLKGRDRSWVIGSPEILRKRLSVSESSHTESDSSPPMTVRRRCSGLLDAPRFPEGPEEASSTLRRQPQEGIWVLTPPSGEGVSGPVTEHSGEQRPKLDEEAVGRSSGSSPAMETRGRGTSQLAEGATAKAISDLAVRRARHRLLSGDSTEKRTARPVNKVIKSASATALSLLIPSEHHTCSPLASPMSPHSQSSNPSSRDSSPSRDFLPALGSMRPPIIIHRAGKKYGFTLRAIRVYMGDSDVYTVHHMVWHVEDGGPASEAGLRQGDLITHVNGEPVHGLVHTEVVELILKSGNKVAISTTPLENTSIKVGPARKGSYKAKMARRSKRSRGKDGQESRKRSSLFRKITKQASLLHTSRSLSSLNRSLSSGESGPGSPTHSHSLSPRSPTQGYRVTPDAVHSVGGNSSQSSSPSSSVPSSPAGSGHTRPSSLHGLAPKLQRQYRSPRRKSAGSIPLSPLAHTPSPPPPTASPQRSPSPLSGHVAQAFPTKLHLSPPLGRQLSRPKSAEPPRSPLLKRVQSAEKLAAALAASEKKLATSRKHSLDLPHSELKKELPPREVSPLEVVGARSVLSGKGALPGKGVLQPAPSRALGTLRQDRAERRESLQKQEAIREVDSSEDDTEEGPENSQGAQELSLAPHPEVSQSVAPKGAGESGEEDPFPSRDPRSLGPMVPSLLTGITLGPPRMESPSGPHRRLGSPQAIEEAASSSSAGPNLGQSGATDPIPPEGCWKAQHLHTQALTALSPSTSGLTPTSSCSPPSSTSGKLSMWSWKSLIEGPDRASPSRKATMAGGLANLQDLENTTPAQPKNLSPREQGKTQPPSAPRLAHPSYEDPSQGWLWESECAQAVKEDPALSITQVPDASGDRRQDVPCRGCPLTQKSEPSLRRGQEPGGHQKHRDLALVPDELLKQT
Ends that are not written are not given here. * marks the point of attachment. Biotin = O=C1N[C@H]2[C@H](CS[C@H]2CCCCC(=O)*)N1
# key: entry, value: Classification
reported-property: Classification

- PVYIVQEMPPQSPANIYYKV (Biotin-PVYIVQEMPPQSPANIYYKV) [ephrin B1]: 1 (A450 nm 0-1)
- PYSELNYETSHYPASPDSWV (Biotin-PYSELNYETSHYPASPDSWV) [catenin - delta 2]: 4 (A450 nm 3-4)
- APC—adenomatous polyposis coli protein (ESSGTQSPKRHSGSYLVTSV): 1 (A450 nm 0-1)
- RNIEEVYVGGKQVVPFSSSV (Biotin-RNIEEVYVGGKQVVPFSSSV) [Nedasin (s-form)]: 2 (A450 nm 1-2)

Where do the numbers come from? From patent US20050282743A1.
